- ASSAY TARGET: Androgen receptor (Homo sapiens) (UniProt P10275)
- Sequence (P10275 whole entry): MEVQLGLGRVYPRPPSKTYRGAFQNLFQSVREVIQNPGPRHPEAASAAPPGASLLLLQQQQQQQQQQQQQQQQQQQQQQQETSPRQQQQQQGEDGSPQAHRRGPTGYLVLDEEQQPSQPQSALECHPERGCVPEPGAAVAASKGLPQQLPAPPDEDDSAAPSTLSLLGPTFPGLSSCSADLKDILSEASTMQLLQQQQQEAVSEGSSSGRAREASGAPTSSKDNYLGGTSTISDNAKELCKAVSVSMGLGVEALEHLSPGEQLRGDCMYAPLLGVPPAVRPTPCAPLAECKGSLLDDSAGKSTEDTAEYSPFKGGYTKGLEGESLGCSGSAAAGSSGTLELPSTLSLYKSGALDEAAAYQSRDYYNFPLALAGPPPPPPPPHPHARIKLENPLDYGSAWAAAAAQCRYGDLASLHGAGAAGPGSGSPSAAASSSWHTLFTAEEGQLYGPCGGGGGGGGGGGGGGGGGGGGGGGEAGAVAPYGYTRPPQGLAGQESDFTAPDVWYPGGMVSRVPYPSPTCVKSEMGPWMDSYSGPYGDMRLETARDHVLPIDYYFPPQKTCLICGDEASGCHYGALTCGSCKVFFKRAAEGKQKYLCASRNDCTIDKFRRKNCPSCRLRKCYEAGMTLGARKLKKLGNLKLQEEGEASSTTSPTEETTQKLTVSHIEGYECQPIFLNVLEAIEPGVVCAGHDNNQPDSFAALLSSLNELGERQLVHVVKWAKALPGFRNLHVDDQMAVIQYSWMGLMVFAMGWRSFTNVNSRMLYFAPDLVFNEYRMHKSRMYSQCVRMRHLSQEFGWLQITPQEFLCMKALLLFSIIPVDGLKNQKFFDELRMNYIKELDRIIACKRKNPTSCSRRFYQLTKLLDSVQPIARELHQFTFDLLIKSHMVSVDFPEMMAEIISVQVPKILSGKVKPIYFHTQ
- MEASUREMENT CONTEXT: CV-1
- Description: Relative stimulatory activity compared to 5-alpha-DHT in CV-1 cells expressing androgen receptor
Quick reference: RSA of the listed items.
Write the number on its own, no unit after it.

# annotated cases, reported RSA shown
[
  {
    "COMPOUND": "C[C@]12CC[C@@H]3C4CCC(=O)CC4C[C@@H](F)[C@H]3[C@@H]1CC[C@@H]2O (stereo partly drawn)",
    "ASSAY TARGET": "Androgen receptor (Homo sapiens) (UniProt P10275)",
    "RSA": 44
  },
  {
    "COMPOUND": "CC12CC[C@@H]3C4CCC(=O)CC4C[C@@H](F)[C@H]3[C@@H]1CC[C@]2(C)O (stereo partly drawn)",
    "ASSAY TARGET": "Androgen receptor (Homo sapiens) (UniProt P10275)",
    "RSA": 16
  },
  {
    "COMPOUND": "CC12CCC(=O)CC1C[C@@H](F)[C@@H]1[C@@H]2CCC2(C)[C@H]1CC[C@]2(C)O (stereo partly drawn)",
    "ASSAY TARGET": "Androgen receptor (Homo sapiens) (UniProt P10275)",
    "RSA": 418
  },
  {
    "COMPOUND": "CC12CC[C@@H]3C4CCC(=O)CC4C[C@@H](I)[C@H]3[C@@H]1CCC2O (stereo partly drawn)",
    "ASSAY TARGET": "Androgen receptor (Homo sapiens) (UniProt P10275)",
    "RSA": 13
  },
  {
    "COMPOUND": "CC12CC[C@H]3[C@@H]([C@H](I)CC4CC(=O)CCC43C)[C@@H]1CCC2O (stereo partly drawn)",
    "ASSAY TARGET": "Androgen receptor (Homo sapiens) (UniProt P10275)",
    "RSA": 20
  },
  {
    "COMPOUND": "C[C@]12CCC(=O)CC1C[C@@H](I)[C@@H]1[C@@H]2CC[C@@]2(C)[C@H]1CC[C@]2(C)O (stereo partly drawn)",
    "ASSAY TARGET": "Androgen receptor (Homo sapiens) (UniProt P10275)",
    "RSA": 28
  },
  {
    "COMPOUND": "CC12CC[C@H]3[C@@H]([C@H](F)CC4CC(=O)CCC43C)[C@@H]1CCC2O (stereo partly drawn)",
    "ASSAY TARGET": "Androgen receptor (Homo sapiens) (UniProt P10275)",
    "RSA": 60
  }
]

Input line: Can you share its RSA? I mean this compound: CC12CC[C@@H]3C4CCC(=O)CC4C[C@@H](I)[C@H]3[C@@H]1CC[C@]2(C)O (stereo partly drawn)
Output line: 8
